All figures here come from the supplement of paper PMC4862054.

# System: CAL-51
# PROCEDURE_TEXT: normalised viability (% of control), CellTiter-Blue; higher = more viable cells (about 100 = DMSO control)
# CONDITION_SET: 30 nM; incubation time: 72 h
OUTCOME_MEASURE: normalised viability (%)
Please respond with the number in % and leave the unit unwritten.

Consider the following illustrative entries.
COc1cc2nccc(Oc3ccc(NC(=O)Nc4cc(C)on4)c(Cl)c3)c2cc1OC = 103
CC[C@H](Nc1ncnc2[nH]cnc12)c1nc2cccc(F)c2c(=O)n1-c1ccccc1 = 92
CCc1cncnc1N1CCN(Cc2nc3ccc(C(F)(F)F)cc3[nH]2)CC1 = 90
CCN(CC)CCCC(C)Nc1c2ccc(Cl)cc2nc2ccc(OC)cc12 (stereo not given) = 97.8
Nc1nc(F)nc2c1ncn2[C@@H]1O[C@H](CO)[C@@H](O)[C@@H]1O = 101

Please report normalised viability for the following compound: COc1cc([C@@H]2c3cc4c(cc3[C@@H](O[C@@H]3O[C@@H]5CO[C@@H](c6cccs6)O[C@H]5[C@H](O)[C@H]3O)[C@H]3COC(=O)[C@H]23)OCO4)cc(OC)c1O [Teniposide] 78.2

Please report normalised viability for the following compound: NCCCNCCSP(=O)(O)O 106

Please report normalised viability for the following compound: Nc1nc2[nH]cc(CCc3ccc(C(=O)N[C@@H](CCC(=O)O)C(=O)O)cc3)c2c(=O)[nH]1 100

Please report normalised viability for the following compound: C1CN1c1nc(N2CC2)nc(N2CC2)n1 106

Please report normalised viability for the following compound: Oc1ncc(N(CCCl)CCCl)c(O)n1 96.7

---

List of normalised viability values.
# Tested on: CAL-85-1
# PROCEDURE_TEXT: normalised viability (% of control), CellTiter-Blue; higher = more viable cells (about 100 = DMSO control)
# CONDITION_SET: 10 nM; incubation time: 72 h
Please respond with the number in % and leave the unit unwritten.

Please report normalised viability for the following compound: NCCCNCCSP(=O)(O)O [Amifostine] 90.7

Please report normalised viability for the following compound: O=C(O)C1(C(=O)O)CCC1.[NH2-].[NH2-].[Pt+2] [Carboplatin] 87.3

Please report normalised viability for the following compound: N#Cc1ccc(C(c2ccc(C#N)cc2)n2cncn2)cc1 [Letrozole] 90.3

Please report normalised viability for the following compound: COc1cc2nccc(Oc3ccc(NC(=O)Nc4cc(C)on4)c(Cl)c3)c2cc1OC [Tivozanib] 103

Please report normalised viability for the following compound: C1CN1c1nc(N2CC2)nc(N2CC2)n1 [Triethylenemelamine] 101

Please report normalised viability for the following compound: Nc1nc(F)nc2c1ncn2[C@@H]1O[C@H](CO)[C@@H](O)[C@@H]1O [Fludarabine] 101

Please report normalised viability for the following compound: CCN(CC)CCCC(C)Nc1c2ccc(Cl)cc2nc2ccc(OC)cc12 (configuration not stated) [Mepacrine] 92.6

---

# Test system: CAL-51
# PROCEDURE_TEXT: normalised viability (% of control), CellTiter-Blue; higher = more viable cells (about 100 = DMSO control)
# CONDITION_SET: 10 nM; incubation time: 72 h
List of normalised viability values.
Kindly format the answer as number then unit.

Would you please give the reported normalised viability of C=CC(=O)Nc1cc2c(Nc3ccc(F)c(Cl)c3)ncnc2cc1OCCCN1CCOCC1 with CAL-51? 109%

Would you please give the reported normalised viability of N#Cc1ccc(C(c2ccc(C#N)cc2)n2cncn2)cc1 with CAL-51? 110%

Would you please give the reported normalised viability of Nc1nc(F)nc2c1ncn2[C@@H]1O[C@H](CO)[C@@H](O)[C@@H]1O with CAL-51? 101%

Would you please give the reported normalised viability of O=C(O)C(=O)O.[NH-][C@@H]1CCCC[C@H]1[NH-].[Pt+2] with CAL-51? 103%

Would you please give the reported normalised viability of COc1cc2nccc(Oc3ccc(NC(=O)Nc4cc(C)on4)c(Cl)c3)c2cc1OC with CAL-51? 99%

Would you please give the reported normalised viability of COc1cc([C@@H]2c3cc4c(cc3[C@@H](O[C@@H]3O[C@@H]5CO[C@@H](c6cccs6)O[C@H]5[C@H](O)[C@H]3O)[C@H]3COC(=O)[C@H]23)OCO4)cc(OC)c1O [Teniposide] with CAL-51? 95%

---

# Tested on: DU-4475
# PROCEDURE_TEXT: drug sensitivity score (DSS), CellTox Green (DSS (AUC-based score)); higher = stronger drug effect (viability inhibition or cytotoxicity); extreme values may be limits of the assay
# CONDITION_SET: incubation time: 72 h
OUTCOME_MEASURE: drug sensitivity score
Enter a number only.

Nc1nc2[nH]cc(CCc3ccc(C(=O)N[C@@H](CCC(=O)O)C(=O)O)cc3)c2c(=O)[nH]1 [Pemetrexed] = 0
CCCS(=O)(=O)Nc1ccc(F)c(C(=O)c2c[nH]c3ncc(-c4ccc(Cl)cc4)cc23)c1F [Vemurafenib] = 1.82
C[C@H]1C[C@@H]2[C@H]([C@@H](O)C[C@@]3(C)[C@H]2CC[C@]3(O)C(=O)CO)[C@@]2(C)C=CC(=O)C=C12 [Methylprednisolone] = 0
COc1cc([C@@H]2c3cc4c(cc3[C@@H](O[C@@H]3O[C@@H]5CO[C@@H](c6cccs6)O[C@H]5[C@H](O)[C@H]3O)[C@H]3COC(=O)[C@H]23)OCO4)cc(OC)c1O [Teniposide] = 4.49

Shifting focus to the compound that follows.
Please report drug sensitivity score for the following compound: O=C(O)C1(C(=O)O)CCC1.[NH2-].[NH2-].[Pt+2] [Carboplatin] 0

---

List of normalised viability values.
# Test system: DU-4475
# PROCEDURE_TEXT: normalised viability (% of control), CellTiter-Blue; higher = more viable cells (about 100 = DMSO control)
# CONDITION_SET: 3 nM; incubation time: 72 h
Please respond with the number in % and leave the unit unwritten.

Consider the following illustrative entries.
CCCS(=O)(=O)Nc1ccc(F)c(C(=O)c2c[nH]c3ncc(-c4ccc(Cl)cc4)cc23)c1F [Vemurafenib] = 94.5
COc1cc2nccc(Oc3ccc(NC(=O)Nc4cc(C)on4)c(Cl)c3)c2cc1OC [Tivozanib] = 103
N#Cc1ccc(C(c2ccc(C#N)cc2)n2cncn2)cc1 [Letrozole] = 94.6
C=CC(=O)N1CCC[C@@H](n2nc(-c3ccc(Oc4ccccc4)cc3)c3c(N)ncnc32)C1 = 87.4
O=C(O)C(=O)O.[NH-][C@@H]1CCCC[C@H]1[NH-].[Pt+2] [Oxaliplatin] = 112

Please report normalised viability for the following compound: Cc1cnc(NC(=O)Nc2cc(Br)c(C)cc2OC[C@@H]2CNCCO2)cn1 94.6

Please report normalised viability for the following compound: CCCCC(=O)OCC(=O)[C@]1(O)Cc2c(O)c3c(c(O)c2[C@@H](O[C@H]2C[C@H](NC(=O)C(F)(F)F)[C@H](O)[C@H](C)O2)C1)C(=O)c1c(OC)cccc1C3=O [Valrubicin] 90.1

---

# Test system: SK-BR-3
# PROCEDURE_TEXT: drug sensitivity score (DSS), CellTiter-Glo (DSS (AUC-based score)); higher = stronger drug effect (viability inhibition or cytotoxicity); extreme values may be limits of the assay
# CONDITION_SET: incubation time: 72 h
OUTCOME_MEASURE: drug sensitivity score
Enter a number only.

COc1cc2c(Oc3ccc4[nH]c(C)cc4c3F)ncnc2cc1OCCCN1CCCC1 = 0
Cc1cnc(NC(=O)Nc2cc(Br)c(C)cc2OC[C@@H]2CNCCO2)cn1 = 1.38
CCN(CC)CCCC(C)Nc1c2ccc(Cl)cc2nc2ccc(OC)cc12 (centres undefined) = 0
C=CCc1cccc(/C=N/NC(=O)CN2CCN(Cc3ccccc3)CC2)c1O = 3.2
O=C(O)C1(C(=O)O)CCC1.[NH2-].[NH2-].[Pt+2] = 0

Please report drug sensitivity score for the following compound: COc1cc2c(NC3CCN(C(C)C)CC3)nc(C3CCCCC3)nc2cc1OCCCN1CCCC1 6.09

Please report drug sensitivity score for the following compound: O=C(Cc1ccc(-c2ccc(OCCN3CCOCC3)cc2)cn1)NCc1ccccc1 27.5

Please report drug sensitivity score for the following compound: CC[C@H](Nc1ncnc2[nH]cnc12)c1nc2cccc(F)c2c(=O)n1-c1ccccc1 0

Please report drug sensitivity score for the following compound: Nc1ncn([C@H]2C[C@H](O)[C@@H](CO)O2)c(=O)n1 0

---

# System: Hs578T
# CONDITION_SET: 72 h
List of EC50, CellTiter-Glo values.
Please respond with the number in µM and leave the unit unwritten.

Consider the following illustrative entries.
O=C(/C=C/c1cccnc1)NCCCCC1CCN(C(=O)c2ccccc2)CC1 = 0.00427
Nc1ccccc1NC(=O)c1ccc(CNC(=O)OCc2cccnc2)cc1 = 1.55
CC1=C(/C=C/C(C)=C/C=C/C(C)=C/C(=O)O)C(C)(C)CCC1 = 6.61

Shifting focus to the molecule that follows.
Would you please give the reported EC50, CellTiter-Glo of Cc1cnc(NC(=O)Nc2cc(Br)c(C)cc2OC[C@@H]2CNCCO2)cn1 with Hs578T? 0.354
